- Test system: UO-31 renal
- Protocol details: NCI-60 one-dose screen, 48 h (100 = growth as untreated, 0 = no growth, -100 = all killed)
- Condition details: 10 µM unless noted
This is part of a sample that, as a whole, favours compounds with a hit. Of some 83,000 tested, about 20% had one in any assay.
Kindly apply the following: t if growth is less than 80%, f in every other case.

Here are 3 compounds together with their reported answers.
O=C(Nc1ccc(S(=O)(=O)F)cc1)Oc1ccccc1 :: f
CC(/C=N/N=C(N)N)=N/N=C(N)N :: t
OC1CCCCC1N1CCC(c2ccccc2)CC1 (stereo unspecified) :: f

Lookup: Determine whether this compound shows growth lower than 80% (ties excluded): CNC(=O)Oc1cccc(OC)c1
Found: f

Lookup: Determine whether this compound shows growth lower than 80% (ties excluded): CC1(C)N=C(N)N=C(N)N1c1ccc(CNC(=O)Nc2ccc(S(=O)(=O)F)c(Cl)c2)c(Cl)c1
Found: f

====

- System: HL-60(TB) leukemia
- Protocol details: NCI-60 one-dose screen, 48 h (100 = growth as untreated, 0 = no growth, -100 = all killed)
- Condition details: 10 µM unless noted
Compounds without any hit were thinned out: in the full panel of roughly 83,000, 20% have a hit.
Kindly apply the following: satisfied if growth is less than 60%, not satisfied in every other case.

Here are 5 compounds together with their reported answers.
Nc1ncc(-c2ccc3ncnc(N4CCc5cc(F)c(Cl)cc54)c3c2)cn1 :: satisfied
CN1CCN(Cc2ccc(NC(=O)c3cncc(C#Cc4cncc5[nH]ncc45)c3)cc2C(F)(F)F)CC1 :: satisfied
CC[C@H](Nc1nc(N)nc(C)c1C#N)c1nc2cccc(NCCCCCC(=O)NO)c2c(=O)n1-c1ccccc1 :: satisfied
O=C(NNc1cnccn1)c1nc2cc(F)ccc2n2cccc12 :: satisfied
OCCCc1n(Cc2ccc3ccccc3c2)c2ccccc2[n+]1Cc1ccc2ccccc2c1 :: satisfied

Lookup: Determine whether this compound shows growth lower than 60% (ties excluded): CCOC(=O)c1c(C)n(-c2ccc(Cl)cc2)c2ccc(OC(=O)/C=C/c3ccccc3)cc12
Found: satisfied

Lookup: Determine whether this compound shows growth lower than 60% (ties excluded): CC1=C(C(=O)Nc2ccc(F)cc2)C(c2ccccc2)C2=C(CC(C)(C)CC2=O)N1 (stereo not given)
Found: not satisfied

====

- Test system: NCI-H23 lung
- Protocol details: NCI-60 one-dose screen, 48 h (100 = growth as untreated, 0 = no growth, -100 = all killed)
- Condition details: 10 µM unless noted
- Method: Growth inhibition of the NCI-H23 human Non-Small Cell Lung tumor cell line is measured as a screen for anti-cancer activity. Cells are grown in 96 well plates and exposed to the test compound for 48 hours. Compounds are tested at a single concentration, which is 10^-5 M for most compounds. The reported endpoint is percent growth (GI% or GIPRCNT), where numbers from 0 - 100% represent growth inhibition, and numbers from -100% - 0 represent cell death. […]
Compounds without any hit were thinned out: in the full panel of roughly 83,000, 20% have a hit. Calls of active or inactive are those of the source. Rule for the calls: active = growth percent below 10; inactive = the rest.
Observation type: growth

CNC(=O)Oc1ccccc1 :: 107% (inactive)

Alright, here's another molecule for you.
Lookup: Lab note: need growth with NCI-H23 lung for entry CC1(C)N=C(N)N=C(N)N1c1ccc(OCCCCOc2ccc(S(=O)(=O)F)cc2)c(Cl)c1 , please look it up.
Found: 20% (inactive)

Where do these numbers come from? They come from PubChem BioAssay (NCI).
